# tested.on: 5-hydroxytryptamine receptor 2B (Rattus norvegicus)
# Sequence (P30994 whole entry): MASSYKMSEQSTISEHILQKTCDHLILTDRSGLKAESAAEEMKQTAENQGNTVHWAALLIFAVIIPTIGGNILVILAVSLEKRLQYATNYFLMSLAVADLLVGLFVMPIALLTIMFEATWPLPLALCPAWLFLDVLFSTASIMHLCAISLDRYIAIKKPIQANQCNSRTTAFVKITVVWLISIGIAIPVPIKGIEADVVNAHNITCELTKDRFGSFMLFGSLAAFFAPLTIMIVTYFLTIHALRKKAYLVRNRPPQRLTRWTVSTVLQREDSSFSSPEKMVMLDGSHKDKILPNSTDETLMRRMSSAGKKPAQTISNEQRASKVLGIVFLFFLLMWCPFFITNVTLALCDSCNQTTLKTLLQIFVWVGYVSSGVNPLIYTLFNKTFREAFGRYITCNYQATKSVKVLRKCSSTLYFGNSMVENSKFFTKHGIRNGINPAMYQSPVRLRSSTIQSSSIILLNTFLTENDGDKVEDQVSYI
# assay.name: Affinity against 5-hydroxytryptamine 2B receptor in the isolated rat stomach fundus
# Type: tissue-based
# condition.notes: read-out: pA2 (converted)
observed.property: log10 of Kb (log10 of the value in nM)
A difference of one corresponds to tenfold Kb; all values are log10 with Kb in nM.

Please state, for each entry, its recorded log10 of Kb.
1. COc1cccc(OC)c1CC(C)N (centres undefined)
2. COc1ccc(CC(C)N)c(OC)c1OC (centres undefined)
3. COc1cc(Br)c(CC(C)N)cc1OC (centres undefined)
4. COc1cc(OC)c(OC)cc1CC(C)N (centres undefined)
5. COc1cc(OC)c(SC)cc1CC(C)N (centres undefined)
6. COc1cc(CC(C)N)cc(OC)c1OC (centres undefined)
7. COc1ccc(CC(C)N)cc1 (centres undefined) [PARA-METHOXYAMPHETAMINE]

1: 3.91; 2: 3.93; 3: 3.25; 4: 2.19; 5: 3.23; 6: 3.40; 7: 3.84

Batch request: log10 of Kb per item, same order as input.
1. COc1cc(OC)c(CC(C)N)cc1C (centres undefined)
2. COc1cc(OC)c(CC(C)N)c(OC)c1 (centres undefined)
3. COc1ccc(CC(C)N)c(OC)c1 (centres undefined)
4. COc1cc(C)c(CC(C)N)cc1OC (centres undefined)
5. COc1ccc(CC(C)N)cc1OC (centres undefined)
6. COc1cc(CC(C)N)c(OC)cc1C (centres undefined) [DOM]

1. 3.39
2. 2.72
3. 3.40
4. 3.14
5. 3.55
6. 1.88

Given the compound COc1cccc(CC(C)N)c1 (centres undefined) , what is its reported log10 of Kb? 3.08

----------
# assay.name: Partition coefficient (logP)
# Type: physicochemical
# condition.notes: octanol/water; read-out: logP
observed.property: logP
Numbers only.

Solved cases below.
compound	logP
COc1cc(CC(C)N)c(SC)cc1OC (stereo unspecified)	1.71
COc1cc(OC)c(CC(C)N)c(OC)c1 (stereo unspecified)	1.57
COc1cc(Br)c(CC(C)N)cc1OC (stereo unspecified)	1.96
COc1ccc(CC(C)N)cc1 (stereo unspecified)	1.77
COc1cc(C)c(CC(C)N)cc1OC (stereo unspecified)	1.66

Alright, here's another compound for you.
If you can, please state the reported logP value of COc1ccc(CC(C)N)c(OC)c1OC (stereo unspecified) . 1.36

----------
# assay.name: Equilibrium constant for DNB complex formation
# Parameters: unit not given here
Cut-off 2 on KDNB: below means Fulfilled, at or above means Not fulfilled.

compound	discrete.label
COc1cccc(CC(C)N)c1 (stereo not given)	Fulfilled
COc1cc(OC)c(CC(C)N)c(OC)c1 (stereo not given)	Not fulfilled
CC(N)Cc1ccc2c(c1)OCO2 (stereo not given)	Fulfilled

Does the reported KDNB of CC(N)Cc1ccccc1 (stereo not given) stay below 2? Fulfilled
